Molecular target: Torsin-1A-interacting protein 2 (Homo sapiens)
Experiment: LULL1 binders on small-molecule microarray, primary screen, cell lysate, human LULL1 lysate, 635/667 nm fluorescence (AID 1092);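 also: probe is lysate of COS7 cells overexpressing human LULL1; score merges per-feature 667 nm fluorescence with signal-to-noise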
Settings: hLULL1 lysate binding, 635 nm fluorescence, higher = more signal
Threshold rule: composite z-score greater than or equal to 1 is Fulfilled; below that, Not fulfilled.

[[record]]
compound = "CCCNC(=O)OC[C@H]1O[C@H](CCON=C2[C@H]3CCn4c(=O)n(-c5ccccc5)c(=O)n4[C@H]3[C@H](O)[C@@H]3O[C@H]23)C=C[C@@H]1Oc1ccc(OC)cc1"
category_label = "Not fulfilled"

[[record]]
compound = "CCN1C(=O)[C@H]2[C@H]3[C@H](O)[C@H](O)CC(=NOC[C@@H](C)[C@H](OCc4ccccc4)C(C)C)[C@@H]3CC[C@H]2C1=O"
category_label = "Not fulfilled"

[[record]]
compound = "C[C@@H]1C=CCC(=O)OC[C@H](C)C(=O)N2CCC[C@H]2C(=O)OC1"
category_label = "Not fulfilled"

[[record]]
compound = "O=C1C[C@@H](O)[C@@H](O)[C@@H]2[C@@H]3C(=O)N(c4cccc(Oc5ccccc5)c4)C(=O)[C@@H]3CC[C@@H]12"
category_label = "Fulfilled"

[[record]]
compound = "CCOC(=O)[C@H](Cc1ccccc1)NC(=O)CCC1CC(OC(=O)NCc2ccc3c(c2)OCO3)CC2(CCCC(COC(=O)NCc3cccc(C(F)(F)F)c3)O2)O1 (stereo not given in full)"
category_label = "Not fulfilled"

[[record]]
compound = "CC1(C)OCC(C(O)C2=CCCCC2=O)CO1 (stereo not given)"
category_label = "Not fulfilled"

[[record]]
compound = "COc1ccc(O[C@H]2C=C[C@@H](c3ccccc3)O[C@@H]2COC(=O)CCC(C)=NOC(C)CN2CCCCc3nc(C)c(C)cc32)cc1 (stereo not given in full)"
category_label = "Not fulfilled"

[[record]]
compound = "COc1ccc(COC(=O)NN=C2C[C@@H](O)[C@@H](O)[C@@H]3[C@@H]4C(=O)N(Cc5ccc6c(c5)OCO6)C(=O)[C@@H]4CC[C@@H]23)cc1"
category_label = "Not fulfilled"

[[record]]
compound = "COC(=O)[C@@H]1N=C(c2ccc(OCCCO)cc2)O[C@@H]1c1ccccc1N=[N+]=[N-]"
category_label = "Fulfilled"

[[record]]
compound = "[N-]=[N+]=NCc1ccccc1[C@@H]1OC(c2ccc(OCCCO)cc2)=N[C@]1(Cc1ccccc1)C(=O)N1CCOCC1"
category_label = "Fulfilled"

[[record]]
compound = "O=C1[C@H]2[C@H]3[C@H](O)[C@H](O)CC(=NOCc4ccccc4)[C@H]3CC[C@H]2C(=O)N1c1cccc(Oc2ccccc2)c1"
category_label = "Fulfilled"

[[record]]
compound = "CCCCCCc1nc(CCCc2cc3c(c(CCCCCC)n2)[Si](C(C)C)(C(C)C)O[C@H]3c2ccccc2)cc2c1[Si](C(C)C)(C(C)C)O[C@H]2c1ccccc1"
category_label = "Not fulfilled"

[[record]]
compound = "C=CCOC(=O)[C@H]1[C@@H]2C(=O)O[C@@H](c3ccccc3)[C@@H](c3ccccc3)N2[C@@H](c2ccc(OCCOC(=O)[C@H]3C[C@H]4C(=O)N5CCC[C@H]5C(=O)N4[C@H]3c3cccc(OCCO)c3)cc2)[C@]12C(=O)Nc1ccc(I)cc12"
category_label = "Fulfilled"

[[record]]
compound = "CC(C)=NOCc1cccc(-c2cc(-c3ccccc3)no2)c1"
category_label = "Fulfilled"

